molecules and their reported log10 EC50
biological target: human 5-HT2C (Homo sapiens, UniProt P28335); assay: Functional activity, FLIPR calcium assay, CHO cells expressing human 5-HT2C; details: CHO cells, FLIPR, Fluo-3-AM; read-out: h5-HT2C EC50
Sequence (P28335 33-458): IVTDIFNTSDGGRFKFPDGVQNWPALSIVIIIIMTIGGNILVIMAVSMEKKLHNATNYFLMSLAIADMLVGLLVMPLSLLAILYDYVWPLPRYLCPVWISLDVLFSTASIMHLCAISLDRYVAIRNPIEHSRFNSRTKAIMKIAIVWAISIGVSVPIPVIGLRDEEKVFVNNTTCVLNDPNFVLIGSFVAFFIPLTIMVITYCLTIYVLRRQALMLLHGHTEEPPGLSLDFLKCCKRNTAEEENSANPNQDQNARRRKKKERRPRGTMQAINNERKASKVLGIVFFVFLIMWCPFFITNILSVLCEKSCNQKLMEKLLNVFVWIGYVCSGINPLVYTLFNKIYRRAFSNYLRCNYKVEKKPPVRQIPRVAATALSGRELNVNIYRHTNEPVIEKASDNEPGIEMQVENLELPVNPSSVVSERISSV
Counter-ions that a name gives are not always drawn.
Values reflect log10 of reported EC50 (nM).

• COc1ccc2c(C)nn(C[C@H](C)N)c2c1 [Example 2, Fumarate] = 1.64
• Cc1nn(C[C@H](C)N)c2cc(F)c(F)cc12 [Example 3, Fumarate] = 1.92
• Cc1nn(CC(C)N)c2ccccc12 (racemic) [Example 1, Fumarate] = 2.98
• CCc1nn(C[C@H](C)N)c2cc(C(F)(F)F)ccc12 [Example 5, Fumarate] = 2.94

Now look at this one.
# input If you can, please state the reported log10 EC50 value of CCc1nn(C[C@H](C)N)c2cc(F)ccc12 [Example 6, Fumarate] .
# output 1.72
